The entries below come with measured pKi values attached.
ASSAYED_TARGET: 5-HT1A receptor (Homo sapiens)
TEST_DESCRIPTION: Radioligand binding, [3H]8-hydroxy-2-
STATED_CONDITIONS: read-out: 5-HT1A Ki; mean±SD, n=3
pKi: −log10 of the molar value.

>>> recorded_result("CC(N)C(=O)c1ccc2c(c1)OCO2 (centres unmarked) [MDC, 3,4-methylenedioxycathinone]")
"< 4.77"

[ask] Name the recorded pKi for CNC(C)Cc1ccc(O)c(OC)c1 (centres unmarked) [HMMA, 4-hydroxy-3-methoxymethamphetamine] .
[reply] < 4.74

[ask] Name the recorded pKi for CNC(C)Cc1ccc(O)c(O)c1 (centres unmarked) [HHMA, 3,4-dihydroxymethamphetamine] .
[reply] < 4.74

[ask] Name the recorded pKi for CNC(C)C(=O)c1ccc(O)c(O)c1 (centres unmarked) [HHMC, 3,4-Dihydroxymethcathinone] .
[reply] < 4.74

[ask] Name the recorded pKi for CNC(C)C(=O)c1ccc(O)c(OC)c1 (centres unmarked) [HMMC, 4-hydroxy-3-methyoxymethcathinone] .
[reply] < 4.74

----------
ASSAYED_TARGET: UniProtKB P41595
Sequence (P41595 whole entry): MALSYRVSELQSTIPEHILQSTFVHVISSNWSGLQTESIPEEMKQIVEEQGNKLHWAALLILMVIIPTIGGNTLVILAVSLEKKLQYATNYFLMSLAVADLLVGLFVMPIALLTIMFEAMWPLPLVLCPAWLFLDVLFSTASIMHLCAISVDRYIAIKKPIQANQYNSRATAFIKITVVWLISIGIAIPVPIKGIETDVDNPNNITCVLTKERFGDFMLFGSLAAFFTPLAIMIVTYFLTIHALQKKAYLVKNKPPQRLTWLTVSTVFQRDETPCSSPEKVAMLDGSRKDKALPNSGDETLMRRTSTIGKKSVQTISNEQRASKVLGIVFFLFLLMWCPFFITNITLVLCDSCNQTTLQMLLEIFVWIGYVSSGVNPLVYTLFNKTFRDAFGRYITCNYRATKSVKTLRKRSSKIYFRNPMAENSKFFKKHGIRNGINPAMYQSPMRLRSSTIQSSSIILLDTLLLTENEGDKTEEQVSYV
TEST_DESCRIPTION: 5-HT2B receptor activation, FLIPR calcium assay in HEK 293 cells
MEASURE_NAME: EC50 (nM)
Report the figure in nM without appending any unit label.

[ask] Name the recorded EC50 for CC(N)Cc1ccc2c(c1)OCO2 (stereo not shown) [MDA, 3,4-methylenedioxyamphetamine, reference compound] .
[reply] 200

----------
ASSAYED_TARGET: 5-HT1A receptor (Homo sapiens, UniProt P08908)
Sequence (P08908 whole entry): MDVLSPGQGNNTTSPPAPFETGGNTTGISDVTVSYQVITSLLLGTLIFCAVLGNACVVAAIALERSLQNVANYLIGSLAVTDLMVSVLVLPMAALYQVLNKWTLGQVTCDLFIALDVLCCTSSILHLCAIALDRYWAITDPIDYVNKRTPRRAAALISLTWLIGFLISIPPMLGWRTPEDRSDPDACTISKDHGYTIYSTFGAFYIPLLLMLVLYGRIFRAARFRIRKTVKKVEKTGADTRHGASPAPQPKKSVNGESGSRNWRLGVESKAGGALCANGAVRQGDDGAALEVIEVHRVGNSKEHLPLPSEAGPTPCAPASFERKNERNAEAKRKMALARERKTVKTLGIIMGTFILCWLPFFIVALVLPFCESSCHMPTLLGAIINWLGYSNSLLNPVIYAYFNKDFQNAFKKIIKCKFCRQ
TEST_DESCRIPTION: Radioligand binding, [3H]8-hydroxy-2-
STATED_CONDITIONS: read-out: 5-HT1A Ki; mean±SD, n=3
MEASURE_NAME: pKi
pKi here: minus log base 10 of the concentration, concentration in moles per litre.

>>> recorded_result("CCCC(C(=O)c1ccc2c(c1)OCO2)N1CCCC1 (stereo not shown) [MDPV, 3,4-methylenedioxypyrovalerone, reference compound]")
4.92

[ask] Name the recorded pKi for CCCC(C(=O)c1ccc(O)c(O)c1)N1CCCC1 (stereo not shown) [HHPV, 3,4-dihydroxypyrovalerone] .
[reply] 5.37

----------
ASSAYED_TARGET: 5-HT1A receptor (Homo sapiens)
TEST_DESCRIPTION: Radioligand binding, [3H]8-hydroxy-2-
pKi: −log10 of the molar value.
MEASURE_NAME: pKi

Sample records with pKi:
>>> recorded_result("CNC(C)C(=O)c1ccc2c(c1)OCO2 (stereo not drawn) [Methylone, 3,4-methylenedioxymethcathinone, reference compound]")
"< 4.77"
>>> recorded_result("CC(N)Cc1ccc2c(c1)OCO2 (stereo not drawn) [MDA, 3,4-methylenedioxyamphetamine, reference compound]")
5.05

Shifting focus to the compound that follows.
[ask] Name the recorded pKi for CC(N)Cc1ccc(O)c(O)c1 (stereo not drawn) [HHA, 3,4-Dihydroxyamphetamine] .
[reply] < 4.74

----------
ASSAYED_TARGET: NET (Homo sapiens)
Sequence (P23975 whole entry): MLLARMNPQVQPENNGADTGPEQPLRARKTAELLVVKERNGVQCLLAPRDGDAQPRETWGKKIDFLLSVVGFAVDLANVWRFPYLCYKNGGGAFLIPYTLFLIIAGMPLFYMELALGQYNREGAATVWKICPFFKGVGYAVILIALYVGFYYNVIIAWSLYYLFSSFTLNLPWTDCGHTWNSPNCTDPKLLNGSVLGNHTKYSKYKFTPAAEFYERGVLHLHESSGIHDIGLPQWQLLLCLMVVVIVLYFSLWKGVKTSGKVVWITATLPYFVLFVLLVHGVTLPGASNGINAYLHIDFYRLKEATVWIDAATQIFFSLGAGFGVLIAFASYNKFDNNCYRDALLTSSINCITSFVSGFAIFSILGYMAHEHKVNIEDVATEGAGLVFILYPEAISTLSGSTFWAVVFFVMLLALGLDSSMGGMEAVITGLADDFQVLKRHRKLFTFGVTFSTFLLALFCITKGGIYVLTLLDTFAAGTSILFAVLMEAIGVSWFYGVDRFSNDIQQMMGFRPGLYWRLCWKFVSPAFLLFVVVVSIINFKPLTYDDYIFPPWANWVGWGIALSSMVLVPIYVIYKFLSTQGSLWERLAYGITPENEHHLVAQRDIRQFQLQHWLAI
TEST_DESCRIPTION: Radioligand binding, N-methyl-[3H]nisoxetine displacement
STATED_CONDITIONS: read-out: NET Ki; mean±SD, n=3
The entries below come with measured pKi values attached.
pKi here: minus log base 10 of the concentration, concentration in moles per litre.

Sample records with pKi:
>>> recorded_result("CCCC(C(=O)c1ccc(O)c(O)c1)N1CCCC1 (centres unmarked) [HHPV, 3,4-dihydroxypyrovalerone]")
6.96
>>> recorded_result("CCCC(C(=O)c1ccc(O)c(OC)c1)N1CCCC1 (centres unmarked) [HMPV, 4-hydroxy-3-methyoxypyrovalerone]")
5.21
>>> recorded_result("CNC(C)C(=O)c1ccc(O)c(O)c1 (centres unmarked) [HHMC, 3,4-Dihydroxymethcathinone]")
5.40
>>> recorded_result("CCCC(C(=O)c1ccc2c(c1)OCO2)N1CCCC1 (centres unmarked) [MDPV, 3,4-methylenedioxypyrovalerone, reference compound]")
7.00

Shifting focus to the compound that follows.
[ask] Name the recorded pKi for CNC(C)Cc1ccc(O)c(O)c1 (centres unmarked) [HHMA, 3,4-dihydroxymethamphetamine] .
[reply] 6.03
